conditions: in ethyl acetate, 298.15 K
assay.readout: solubility (mole fraction)
Give the value as a plain number.

For COc1cc(CC#N)cc(OC)c1OC , what is its reported solubility (mole fraction)?
0.146

---

settings: in sec-butanol, 318.15 K
assay.readout: solubility (mole fraction)

For COc1cc(CC#N)cc(OC)c1OC , what is its reported solubility (mole fraction)?
0.189

---

conditions: in DMF, 308.15 K
assay.readout: solubility (mole fraction)
Give the value as a plain number.

For COc1cc(CC#N)cc(OC)c1OC , what is its reported solubility (mole fraction)?
0.289

---

details: in isopropanol, 283.15 K
assay.readout: solubility (mole fraction)
Give the value as a plain number.

For COc1cc(CC#N)cc(OC)c1OC , what is its reported solubility (mole fraction)?
0.00545
